Values were extracted from the supplement of paper PMC8671470.

# reported IC50 (cell viability); entries follow
System: HL-60
Conditions: 72 h
readout-label: IC50 (cell viability)

1. Cc1nc(-c2ccccc2)sc1C(=O)Nc1ccc(S(N)(=O)=O)cc1; > 10 µM
2. C=CCN(C)CCCCCCOc1ccc(C(=O)c2ccc(Br)cc2)c(F)c1.O=C(O)/C=C/C(=O)O [Ro 48-8071 fumarate]; 5.92 µM
3. CN(CCCOc1ccc(Cc2ccccc2)cc1)CCC(=O)O; > 10 µM
4. COc1ccc2c(NC(=O)Nc3cccc(C(F)(F)F)n3)ccnc2c1; > 10 µM
5. O=C(/C=C/c1ccc(O)c(O)c1)OCCc1ccccc1; 1.07 µM
6. CN(Cc1cnc2nc(N)nc(N)c2n1)c1ccc(C(=O)N[C@@H](CCC(=O)O)C(=O)O)cc1 [Methotrexate]; 0.00701 µM
7. CS(=O)(=O)N1CCN(Cc2cc3nc(-c4cccc5[nH]ncc45)nc(N4CCOCC4)c3s2)CC1; 0.0159 µM
8. N#Cc1ccc(N(Cc2ccc(Br)cc2)n2cnnc2)cc1; > 10 µM
9. CC(C)(C)c1ccc(S(=O)(=O)NCc2ccc(C(=O)Nc3cccnc3)cc2)cc1; 0.143 µM
10. CCc1c(C(=O)C(N)=O)c2c(OCC(=O)O)cccc2n1Cc1ccccc1; > 10 µM
11. Cc1c2c(=O)n(-c3ccccc3Cl)[nH]c2cc(=O)n1Cc1ccccn1; > 10 µM
12. O=c1c(-c2ccc(O)cc2)coc2cc(O[C@@H]3O[C@H](CO)[C@@H](O)[C@H](O)[C@H]3O)ccc12; > 10 µM
13. Cc1ccc(-c2cc(C(F)(F)F)nn2-c2ccc(S(N)(=O)=O)cc2)cc1; > 10 µM
14. CCN(CC)C(=S)SSC(=S)N(CC)CC; > 10 µM
15. N#C/C(=C\c1ccc(O)cc1)C(=O)O [alpha-cyano-4-hydroxycinnamic acid]; > 10 µM
16. O=C(O)CC[N+](=O)[O-]; 4.69 µM
17. Cc1c(Cl)cccc1S(=O)(=O)Nc1nc(CC(=O)N2CCN(C)CC2)cs1; > 10 µM
18. c1cc(-c2cnn3cc(-c4ccc(OCCN5CCCCC5)cc4)cnc23)ccn1; > 10 µM

---

Test system: MV4-11
Assay: cell viability (% survival relative to DMSO control, bortezomib = 0%); higher = less cytotoxic
Conditions: 10000 nM; 72 h
readout-label: cell viability (%)

1. O=c1c(-c2ccc(O)cc2)coc2cc(O[C@@H]3O[C@H](CO)[C@@H](O)[C@H](O)[C@H]3O)ccc12 [Daidzin]; 98.8
2. Cc1cc2c(C(C)C)c(O)c(O)c(C=O)c2c(O)c1-c1c(C)cc2c(C(C)C)c(O)c(O)c(C=O)c2c1O [Gossypol]; -0.358
3. CO[C@H]1C[C@@H]2CC[C@@H](C)[C@@](O)(O2)C(=O)C(=O)N2CCCC[C@H]2C(=O)O[C@H]([C@H](C)C[C@@H]2CC[C@@H](OCCO)[C@H](OC)C2)CC(=O)[C@H](C)/C=C(\C)[C@@H](O)[C@@H](OC)C(=O)[C@H](C)C[C@H](C)/C=C/C=C/C=C/1C [Everolimus]; 22.6
4. O=C1C(SCCO)=C(SCCO)C(=O)c2ccccc21; -0.335
5. N#Cc1ccc(N(Cc2ccc(Br)cc2)n2cnnc2)cc1 [YM511]; 98.9
